Where these numbers come from: ChEMBL document CHEMBL1132327

Species on record: Mus musculus
Experiment: Biodistribution of [225Ac]-labeled compound in normal mice liver after 24 hr
Assay type: ADME, organism-based
Details: in vivo
VALUE_TYPE: ID/g (%)

O=C(O)CN1CCN(CC(=O)O)CCN(CC(=O)O)CCN(CC(=O)O)CCN(CC(=O)O)CC1 :: 14.7

a = O=C(O)CN1CCN(CC(=O)O)CCN(CC(=O)O)C(Cc2ccc([N+](=O)[O-])cc2)CN(CC(=O)O)CC1 (centres undefined)
b = O=C(O)CN(CC(=O)O)[C@H](Cc1ccc([N+](=O)[O-])cc1)CN(CC(=O)O)[C@@H]1CCCC[C@H]1N(CC(=O)O)CC(=O)O
c = O=C(O)CN1CCN(CC(=O)O)CCN(CC(=O)O)CCN(CC(=O)O)CCN(CC(=O)O)CCN(CC(=O)O)CC1
hey, can you rank those molecules up there by ID/g? biggest number first please Put the labels in the order asked and list them.
b, a, c
